- System: Enterobacteria phage lambda
- ASSAY_TEXT: Induction of lambda phage lytic activity in Escherichia coli W1709(lambda) assessed as ratio of plaques in treated culture to control at 3.1 ug/ml preincubated for 90 mins followed by heart infusion broth and glucose addition measured after 120 mins
- Format: functional
REPORTED_METRIC: T/C
Reply: number alone, nothing else.

* CN[C@@H]1Cn2c3c(c(COC(N)=O)c2[C@H]1O)C(=O)C(OC)=C(C)C3=O (relative stereo) | 7
* CN[C@@H]1Cn2c3c(c(COC(N)=O)c2[C@@H]1O)C(=O)C(OC)=C(C)C3=O (relative stereo) | 22.4
* COC1=C(C)C(=O)c2c(c(COC(N)=O)c3n2CCC3O)C1=O (racemic) | 6.9

We next turn to a different compound, shown below.
[in] // T/C lookup, key: COC1=C(C)C(=O)c2c(c(COC(N)=O)c3n2C[C@H]2[C@@H]3N2C)C1=O (some centres undefined)
[out] 35.4
